Give measured log10(Ki) for each item. Keep answers brief.
target: Delta-type opioid receptor (Homo sapiens); test: Displacement of [3H]naltrindole from human delta opioid receptor expressed in CHO membrane
Log scale reminder: Ki in nM, then log10 taken.

Prompt line: // lookup log10(Ki) for `COc1ccc2c(c1)[C@]13CCN(CC4CCC4)[C@H](C2)[C@@H]1Cc1c([nH]c2ccccc12)C3`
Response line: 0.94

Prompt line: Given `CN1CC[C@]23Cc4nc(N)sc4C[C@H]2[C@H]1Cc1ccc(O)cc13` , state its recorded log10(Ki).
Response line: 0.62

Prompt line: Item `Nc1nc2c(s1)C[C@H]1[C@H]3Cc4ccc(O)cc4[C@@]1(CCN3CC1CCC1)C2` has what recorded log10(Ki)?
Response line: 0.04

Prompt line: Which log10(Ki) reading was recorded for the molecule `COc1ccc2c(c1)[C@]13CCN(CC4CC4)[C@H](C2)[C@@H]1Cc1c([nH]c2ccccc12)C3` ?
Response line: 0.18

Prompt line: Data request, read-out log10(Ki), for `Oc1ccc2c(c1)[C@]13CCN(CC4CCC4)[C@H](C2)[C@@H]1Cc1c([nH]c2ccccc12)C3`
Response line: -0.77

Prompt line: What log10(Ki) value was documented for this molecule, `COc1ccc2c(c1)[C@]13CCN(C)[C@H](C2)[C@@H]1Cc1c([nH]c2ccccc12)C3` ?
Response line: 1.54

Prompt line: Requested field: log10(Ki). Item: `Nc1nc2c(s1)C[C@H]1[C@H]3Cc4ccc(O)cc4[C@@]1(CCN3CC1CC1)C2`
Response line: -0.64

Prompt line: Need log10(Ki) of `Oc1ccc2c(c1)[C@]13CCN(CC4CC4)[C@H](C2)[C@@H]1Cc1c([nH]c2ccccc12)C3` , thanks.
Response line: -0.72

Prompt line: Item `CN1CC[C@]23Cc4[nH]c5ccccc5c4C[C@H]2[C@H]1Cc1ccc(O)cc13` has what recorded log10(Ki)?
Response line: -0.46

====

target: Kappa-type opioid receptor (Homo sapiens)
We label by threshold. Values of Ki strictly beneath 2 nM are Satisfied. Values of 2 nM and up are Not satisfied.

Prompt line: Regarding `Oc1ccc2c(c1)[C@]13CCN(CC4CC4)[C@H](C2)[C@@H]1Cc1c([nH]c2ccccc12)C3` , kindly confirm whether its Ki is beneath 2 nM.
Response line: Satisfied

Prompt line: Given `COc1ccc2c(c1)[C@]13CCN(CC4CC4)[C@H](C2)[C@@H]1Cc1c([nH]c2ccccc12)C3` , is recorded Ki strictly lower than 2 nM?
Response line: Satisfied

Prompt line: Record `Nc1nc2c(s1)C[C@H]1[C@H]3Cc4ccc(O)cc4[C@@]1(CCN3CC1CC1)C2` : is its Ki strictly below 2 nM?
Response line: Satisfied

Prompt line: State whether 2 nM exceeds Ki recorded for `CN1CC[C@]23Cc4nc(N)sc4C[C@H]2[C@H]1Cc1ccc(O)cc13` .
Response line: Not satisfied

Prompt line: Report whether reported Ki is lower than 2 nM (strictly) for `Oc1ccc2c(c1)[C@]13CCN(CC4CCC4)[C@H](C2)[C@@H]1Cc1c([nH]c2ccccc12)C3`
Response line: Satisfied

Prompt line: Item `CN1CC[C@]23Cc4[nH]c5ccccc5c4C[C@H]2[C@H]1Cc1ccc(O)cc13` : Ki beneath 2 nM, strictly?
Response line: Not satisfied

Prompt line: Could you please tell me whether Ki recorded for `COc1ccc2c(c1)[C@]13CCN(C)[C@H](C2)[C@@H]1Cc1c([nH]c2ccccc12)C3` is less than 2 nM?
Response line: Not satisfied

Prompt line: Does `COc1ccc2c(c1)[C@]13CCN(CC4CCC4)[C@H](C2)[C@@H]1Cc1c([nH]c2ccccc12)C3` have Ki strictly under 2 nM?
Response line: Not satisfied

Prompt line: Answer whether the molecule `Nc1nc2c(s1)C[C@H]1[C@H]3Cc4ccc(O)cc4[C@@]1(CCN3CC1CCC1)C2` has Ki strictly less than 2 nM
Response line: Satisfied

====

target: Mu-type opioid receptor (Homo sapiens, UniProt P35372); test: Agonist activity at human mu opioid receptor expressed in CHO membrane assessed as stimulation of [35S]GTPgammaS binding; type: functional, cell membranes
Sequence (P35372 whole entry): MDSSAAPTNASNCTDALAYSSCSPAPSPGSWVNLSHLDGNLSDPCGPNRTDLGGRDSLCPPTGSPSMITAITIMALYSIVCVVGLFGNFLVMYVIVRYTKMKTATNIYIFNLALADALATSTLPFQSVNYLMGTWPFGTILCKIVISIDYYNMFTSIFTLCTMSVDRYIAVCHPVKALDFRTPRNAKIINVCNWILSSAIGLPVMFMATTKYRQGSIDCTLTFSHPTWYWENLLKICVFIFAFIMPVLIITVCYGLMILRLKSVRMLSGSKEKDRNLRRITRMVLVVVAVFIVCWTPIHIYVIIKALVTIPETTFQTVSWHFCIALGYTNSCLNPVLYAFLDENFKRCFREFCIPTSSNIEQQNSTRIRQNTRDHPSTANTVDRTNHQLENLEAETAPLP
Quantity Measured: Emax (%)
Just the number please, in %, no unit attached.

Prompt line: Any idea what its Emax is? The compound is `Nc1nc2c(s1)C[C@H]1[C@H]3Cc4ccc(O)cc4[C@@]1(CCN3CC1CCC1)C2`
Response line: 33

Prompt line: Looking for the measured Emax of `Oc1ccc2c(c1)[C@]13CCN(CC4CCC4)[C@H](C2)[C@@H]1Cc1c([nH]c2ccccc12)C3` , can you help?
Response line: 68

Prompt line: # query: Emax of entry `COc1ccc2c(c1)[C@]13CCN(CC4CC4)[C@H](C2)[C@@H]1Cc1c([nH]c2ccccc12)C3`
Response line: 72

Prompt line: I'd like to know its Emax. The compound in question is `CN1CC[C@]23Cc4nc(N)sc4C[C@H]2[C@H]1Cc1ccc(O)cc13`
Response line: 42

Prompt line: Please report the recorded Emax for `Oc1ccc2c(c1)[C@]13CCN(CC4CC4)[C@H](C2)[C@@H]1Cc1c([nH]c2ccccc12)C3` .
Response line: 47

====

target: Delta-type opioid receptor (Homo sapiens, UniProt P41143); assay: Antagonist activity at human delta opioid receptor expressed in CHO membrane assessed as inhibition of SNC80-induced [35S]GTPgammaS binding
Quantity Measured: pIC50
Quick note: pIC50 means taking -log10 of the concentration in moles per liter.

Prompt line: pIC50 of `Oc1ccc2c(c1)[C@]13CCN(CC4CCC4)[C@H](C2)[C@@H]1Cc1c([nH]c2ccccc12)C3` on Delta-type opioid receptor (Homo sapiens, UniProt P41143)?
Response line: 9.22

Prompt line: Query the reported pIC50 for Delta-type opioid receptor (Homo sapiens, UniProt P41143); item: `CN1CC[C@]23Cc4[nH]c5ccccc5c4C[C@H]2[C@H]1Cc1ccc(O)cc13`
Response line: 8.82

Prompt line: Query pIC50 on Delta-type opioid receptor (Homo sapiens, UniProt P41143) for `Oc1ccc2c(c1)[C@]13CCN(CC4CC4)[C@H](C2)[C@@H]1Cc1c([nH]c2ccccc12)C3`
Response line: 8.92

====

target: Opioid receptors; delta & kappa (Homo sapiens) (UniProt P41145+P41143); assay: Selectivity for human kappa opioid receptor over human delta opioid receptor; format: protein assay
Sequence (P41143 whole entry, looked up): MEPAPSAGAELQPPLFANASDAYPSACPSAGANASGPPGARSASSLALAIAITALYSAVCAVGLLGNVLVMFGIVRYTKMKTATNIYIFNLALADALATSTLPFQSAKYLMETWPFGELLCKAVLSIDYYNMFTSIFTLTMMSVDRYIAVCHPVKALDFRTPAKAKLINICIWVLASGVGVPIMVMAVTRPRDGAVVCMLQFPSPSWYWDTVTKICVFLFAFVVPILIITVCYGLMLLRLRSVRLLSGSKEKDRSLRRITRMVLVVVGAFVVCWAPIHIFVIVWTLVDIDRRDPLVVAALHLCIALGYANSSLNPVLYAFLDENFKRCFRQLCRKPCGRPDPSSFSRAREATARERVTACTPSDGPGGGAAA
Sequence (P41145 whole entry, looked up): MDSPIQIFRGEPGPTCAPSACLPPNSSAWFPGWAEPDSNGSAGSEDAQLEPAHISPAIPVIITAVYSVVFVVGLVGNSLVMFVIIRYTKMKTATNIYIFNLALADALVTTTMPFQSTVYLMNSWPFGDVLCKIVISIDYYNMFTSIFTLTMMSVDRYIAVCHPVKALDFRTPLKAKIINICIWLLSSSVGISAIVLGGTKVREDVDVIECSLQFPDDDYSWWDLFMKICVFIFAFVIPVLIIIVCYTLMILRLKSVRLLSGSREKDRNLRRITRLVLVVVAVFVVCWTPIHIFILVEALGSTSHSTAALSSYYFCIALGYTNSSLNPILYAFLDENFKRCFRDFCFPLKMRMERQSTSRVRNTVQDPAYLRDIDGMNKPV
Quantity Measured: Ratio Ki
Reply: number alone, nothing else.

Prompt line: Recorded Ratio Ki for `COc1ccc2c(c1)[C@]13CCN(CC4CCC4)[C@H](C2)[C@@H]1Cc1c([nH]c2ccccc12)C3` , please?
Response line: 0.1

Prompt line: For the compound `Oc1ccc2c(c1)[C@]13CCN(CC4CC4)[C@H](C2)[C@@H]1Cc1c([nH]c2ccccc12)C3` , what Ratio Ki is on record?
Response line: 0.3

Prompt line: Item `COc1ccc2c(c1)[C@]13CCN(CC4CC4)[C@H](C2)[C@@H]1Cc1c([nH]c2ccccc12)C3` has what recorded Ratio Ki?
Response line: 1

Prompt line: Reported Ratio Ki, compound `Oc1ccc2c(c1)[C@]13CCN(CC4CCC4)[C@H](C2)[C@@H]1Cc1c([nH]c2ccccc12)C3` : ____
Response line: 0.2

Prompt line: Name the reported Ratio Ki value associated with the compound `COc1ccc2c(c1)[C@]13CCN(C)[C@H](C2)[C@@H]1Cc1c([nH]c2ccccc12)C3`
Response line: 0.1

Prompt line: Consider the compound shown here: `CN1CC[C@]23Cc4nc(N)sc4C[C@H]2[C@H]1Cc1ccc(O)cc13` What is its recorded Ratio Ki?
Response line: 2

Prompt line: Requested field: Ratio Ki. Item: `Nc1nc2c(s1)C[C@H]1[C@H]3Cc4ccc(O)cc4[C@@]1(CCN3CC1CCC1)C2`
Response line: 8

Prompt line: May I ask what Ratio Ki has been recorded for `CN1CC[C@]23Cc4[nH]c5ccccc5c4C[C@H]2[C@H]1Cc1ccc(O)cc13` ?
Response line: 0.03

====

target: Mu-type opioid receptor (Homo sapiens); experiment: Agonist activity at human mu opioid receptor expressed in CHO membrane assessed as stimulation of [35S]GTPgammaS binding
Field 'label' (enum: class 1 / class 0). Set to class 1 when EC50 is strictly under 90 nM; else class 0.

Prompt line: Does the reported EC50 of the following compound sit strictly below 90 nM? `CN1CC[C@]23Cc4nc(N)sc4C[C@H]2[C@H]1Cc1ccc(O)cc13`
Response line: class 0

Prompt line: EC50 under 90 nM? Item: `Oc1ccc2c(c1)[C@]13CCN(CC4CCC4)[C@H](C2)[C@@H]1Cc1c([nH]c2ccccc12)C3`
Response line: class 0

Prompt line: Lab log: compare recorded EC50 with 90 nM; is it strictly lower for `COc1ccc2c(c1)[C@]13CCN(CC4CC4)[C@H](C2)[C@@H]1Cc1c([nH]c2ccccc12)C3` ?
Response line: class 1

Prompt line: Identify whether the compound `Nc1nc2c(s1)C[C@H]1[C@H]3Cc4ccc(O)cc4[C@@]1(CCN3CC1CCC1)C2` records EC50 below 90 nM.
Response line: class 1
